// values below are reported ED50
tested on: methylphenidate-induced gnawing; test: Methylphenidate antagonism; type: in vivo, mice; conditions: Mus musculus, sc, read-out: MePh Antg. ED50 (sc)
Where a name gives a salt, the structure may show the parent alone.
PROPERTY: ED50

COMPOUND: Fc1ccc(-n2cc(C3=CCNCC3)c3cc(F)ccc32)cc1 [Lu 23-159]
RESULT: 47 µmol/kg

COMPOUND: Fc1ccc(-n2cc(C3=CCNCC3)c3cc(Cl)ccc32)cc1 [Lu 23-147]
RESULT: > 99 µmol/kg

COMPOUND: CC(C)N1CC=C(c2cn(-c3ccc(F)cc3)c3ccc(F)cc23)CC1 [Lu 23-167, fumarate]
RESULT: 2.7 µmol/kg

COMPOUND: OCCN1CC=C(c2c[nH]c3ccc(Cl)cc23)CC1 [Lu 23-143, reference compound]
RESULT: 72 µmol/kg

---

molecular target: serotomin2 (5-HT2) receptors (Rattus norvegicus, UniProt P14842)
Sequence (P14842 whole entry): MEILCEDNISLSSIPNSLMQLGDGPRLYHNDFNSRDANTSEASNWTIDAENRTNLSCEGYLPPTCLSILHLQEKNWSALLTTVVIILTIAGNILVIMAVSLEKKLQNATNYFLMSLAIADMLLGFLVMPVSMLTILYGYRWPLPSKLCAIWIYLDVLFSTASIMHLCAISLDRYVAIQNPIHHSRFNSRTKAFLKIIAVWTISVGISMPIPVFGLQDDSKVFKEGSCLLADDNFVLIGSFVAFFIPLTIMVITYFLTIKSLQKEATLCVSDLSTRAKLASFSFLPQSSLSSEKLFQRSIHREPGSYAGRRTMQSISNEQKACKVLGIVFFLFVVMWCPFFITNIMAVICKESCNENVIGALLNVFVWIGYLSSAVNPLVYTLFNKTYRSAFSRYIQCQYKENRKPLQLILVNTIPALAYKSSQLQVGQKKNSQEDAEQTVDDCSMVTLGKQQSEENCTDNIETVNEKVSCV
pIC50: −log10 of the molar value. Counter-ions that a name gives are not always drawn.
Response key: 1 means pIC50 >= 8; -1 means pIC50 < 8.

COMPOUND: CN1CC=C(c2cn(-c3ccc(F)cc3)c3ccc(C(F)(F)F)cc23)CC1.O=C(O)C(=O)O [Lu 21-120, oxalate]
TARGET OF ASSAY: serotomin2 (5-HT2) receptors (Rattus norvegicus, UniProt P14842)
CAT: 1

COMPOUND: Br.CN1CC=C(c2cn(-c3ccc(F)cc3)c3ccc(Cl)cc23)CC1 [Lu 22-117, hydrobromide]
TARGET OF ASSAY: serotomin2 (5-HT2) receptors (Rattus norvegicus, UniProt P14842)
CAT: 1

COMPOUND: O=C1NCCN1CCN1CCC(c2cn(-c3ccc(F)cc3)c3ccccc23)CC1 [Lu 23-086]
TARGET OF ASSAY: serotomin2 (5-HT2) receptors (Rattus norvegicus, UniProt P14842)
CAT: 1

COMPOUND: O=C1CCCN1CCN1CC=C(c2cn(-c3ccc(F)cc3)c3ccc([N+](=O)[O-])cc23)CC1 [Lu 23-024, hydrochloride]
TARGET OF ASSAY: serotomin2 (5-HT2) receptors (Rattus norvegicus, UniProt P14842)
CAT: 1

COMPOUND: Cc1nccn1CCN1CC=C(c2cn(-c3ccc(F)cc3)c3ccc(C(F)(F)F)cc23)CC1 [Lu 23-173]
TARGET OF ASSAY: serotomin2 (5-HT2) receptors (Rattus norvegicus, UniProt P14842)
CAT: -1
